experiment: small-molecule microarray binders of probe aNog, primary screen, biochemical, biotinylated probe, 635/667 nm fluorescence (AID 1115); details: higher = more signal;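 note: probe is biotinylated aNog protein used at 0.15 µg/mL for 1 h at 4 C; z-score combines 667 nm fluorescence of each spot with its signal to noise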
Entry flag: Yes if composite z-score reaches -0.2; No if it does not.

INSERT INTO results (compound, group) VALUES
  ('COc1ccc(C#Cc2ccc3c(c2)[C@]2(C(=O)N3)[C@H](C(=O)N3CCc4cc(OC)c(OC)cc4C3)[C@H]3C(=O)O[C@H](c4ccccc4)[C@H](c4ccccc4)N3[C@@H]2c2ccc(O)cc2)cc1', 'Yes'),
  ('O=C1NC(=O)C2C1C=CC(C(O)c1c(F)cccc1Cl)N2Nc1ccccn1 (stereo unspecified)', 'No'),
  ('C=CCN1C(=O)[C@@]2(O[C@@H](CCn3cc([C@H](O)c4ccccc4)nn3)[C@H]([Si](C)(C)c3ccc(OC)cc3)[C@H]2C)c2ccccc21', 'Yes'),
  ('CN(C)CCCNC(=O)[C@@]1(C)c2ccccc2C(=O)N(Cc2cc(C(F)(F)F)cc(C(F)(F)F)c2)[C@H]1c1ccc(CO)cc1', 'No'),
  ('CO[C@H]1O[C@H](CO)[C@@H](OC(=O)Nc2ccc(C(F)(F)F)cc2)[C@H](OC(=O)Nc2ccc3c(c2)OCO3)[C@H]1OC(=O)Nc1ccc2c(c1)OCO2', 'Yes'),
  ('O=C1O[C@@H](c2ccccc2)[C@@H](c2ccccc2)N2[C@@H](c3ccc(O)cc3)[C@]3(C(=O)Nc4ccccc43)[C@@H](C(=O)Nc3nc4ccccc4s3)[C@H]12', 'Yes');

###

assay: splicing luciferase reporter signal modulators, primary screen, spliceosome inhibition project, cell-based, HEK293, splice +/- reporter (AID 1101); conditions: luminescence, 24 h, higher = more signal, called active from +8 up or from −8 down;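 note: HEK293 cells carrying a splicing-competent luciferase reporter gene; test concentration not given here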
Assign a class from recorded z-score; defined classes: one (below -0.5), two (-0.5 to below 0.4), three (0.4 or more)

INSERT INTO results (compound, group) VALUES
  ('CN(C)CCCNC(=O)[C@@H]1c2ccccc2C(=O)N(Cc2ccc(OC(F)(F)F)cc2)[C@H]1c1ccc(CO)cc1', 'two'),
  ('CN(C)C(=O)[C@@]1(Cc2ccccc2N=[N+]=[N-])COC(c2ccc(OCCCO)cc2)=N1', 'one'),
  ('CCOC(=CC(=O)OC)CC(O)c1cccc(Cl)c1 (centres undefined)', 'one'),
  ('[N-]=[N+]=Nc1ccccc1C[C@@]1(C(=O)O)N=C(c2ccc(OCCCO)cc2)O[C@@H]1c1ccccc1', 'two'),
  ('Cc1ccc(S[C@]2(C(=O)NC(C)C)CC(=O)N(Cc3ccccc3C(F)(F)F)[C@@H]2c2ccc(CO)cc2I)cc1', 'one'),
  ('COc1ccc([Si](C)(C)[C@H]2[C@H](CCn3cc(CCO)nn3)O[C@@]3(C(=O)N(Cc4ccc(N5C(=O)c6cccc7cccc5c67)cc4)c4ccccc43)[C@@H]2C)cc1', 'one'),
  ('COC(=O)[C@@]1(Cc2ccccc2)[C@H]2c3cc(C(=O)N4CCCC4)n(Cc4ccsc4Br)c3C[C@H]2CN1C(=O)c1ccccc1', 'one'),
  ('C=CCOC(=O)[C@@H]1[C@H]2C(=O)O[C@H](c3ccccc3)[C@H](c3ccccc3)N2[C@H](c2ccc(OCCOC(=O)[C@H]3C[C@H]4C(=O)N[C@@H](CCCCNC(C)=O)C(=O)N4[C@H]3c3cccc(OCCO)c3)cc2)[C@@]12C(=O)Nc1ccc(I)cc12', 'two'),
  ('C=CCOC(=O)[C@H]1[C@@H]2C(=O)O[C@@H](c3ccccc3)[C@@H](c3ccccc3)N2[C@@H](c2ccc(OCCOC(=O)[C@H]3C[C@H]4C(=O)N[C@@H](Cc5ccccc5)C(=O)N4[C@H]3c3ccc(O)cc3)cc2)[C@]12C(=O)Nc1ccc(I)cc12', 'two'),
  ('C=C(CCCC)/C(=C/C[C@@H](OC(=O)c1ccncc1)c1cccc(OCCO)c1)c1cnc2ccccc2c1', 'one'),
  ('O=C1C2C=CC(C(O)c3cc(C(F)(F)F)cc(C(F)(F)F)c3)N(Nc3ccc([N+](=O)[O-])cc3)C2C(=O)N1c1ccccc1 (centres undefined)', 'three'),
  ('O=C1NC(=O)C2C1C=CC(C(O)c1cc(C(F)(F)F)cc(C(F)(F)F)c1)N2Nc1ccc(Cl)cc1Cl (centres undefined)', 'three'),
  ('O=C1c2ccccc2[C@](Cc2ccccc2I)(C(=O)NCc2ccccc2)[C@H](c2ccc(CO)cc2)N1C1CCCCC1', 'two'),
  ('CN(C)CCCN1C(=O)[C@@]2(c3ccc([N+](=O)[O-])cc3)CC(=O)N(CC34CC5CC(CC(C5)C3)C4)[C@@H]2c2ccc(CO)cc21', 'three'),
  ('C=C1C2CC3C(=C4C(CO[C@@H]4[C@H]4CCCN4S(=O)(=O)c4ccccc4[N+](=O)[O-])C4C(=O)N(C)C(=O)C34)CC2C(=O)N1C (some centres undefined)', 'two'),
  ('O=C1NC(=O)C2C1C=CC(C(O)c1ccc(Br)cc1)N2Nc1ccccn1 (centres undefined)', 'two'),
  ('CN(C)CCCNC(=O)[C@@]1(c2ccc([N+](=O)[O-])cc2)CC(=O)N(CC23CC4CC(CC(C4)C2)C3)[C@@H]1c1ccc(CO)cc1', 'two'),
  ('COCC(=C=CC[C@H](O)c1cccc(OCCO)c1)C[C@H](O)c1ccccn1', 'one'),
  ('CCOc1cc(C(O)C2C=CC3C(=O)N(C)C(=O)C3N2N2CCCCC2)ccc1O (centres undefined)', 'two'),
  ('CC(C)C(O)C1C=CC2C(=O)N(C)C(=O)C2N1Nc1ccccc1 (centres undefined)', 'three'),
  ('NC(N)=NCc1cn(CCc2c[nH]c3ccccc23)nn1', 'two'),
  ('CC(C)(C)OC(=O)CC[C@]1(C(=O)NCCN2CCOCC2)N=C(c2ccc(OCCCO)cc2)O[C@H]1c1ccccc1N=[N+]=[N-]', 'one'),
  ('COCCCNC(=O)[C@@H]1c2ccccc2C(=O)N(Cc2ccccc2C(F)(F)F)[C@H]1c1ccc(CO)cc1', 'two'),
  ('O=C(N1CCCCC1)[C@@]1(Cc2ccccc2)COC(c2ccc(OCCCO)cc2)=N1', 'three'),
  ('CCCC=C(CCC)[C@@H](NP(=O)(c1ccccc1)c1ccccc1)c1ccc(C(F)(F)F)cc1', 'two'),
  ('C=CCNC(=O)[C@H]1[C@@H]2C(=O)O[C@@H](c3ccccc3)[C@@H](c3ccccc3)N2[C@@H](c2ccccc2OCCO)[C@]12C(=O)N(C(=O)OCCOC)c1ccc(C#CC3=CCCCC3)cc12', 'one'),
  ('C[C@@H]1ON(c2ccc(C(=O)OC(C)(C)C)cc2)[C@H](c2ccc(Br)cc2)[C@H]1C(=O)N1C(=O)OC[C@H]1Cc1ccccc1', 'one'),
  ('Cc1ccc(F)cc1S(=O)(=O)N[C@@H]1CCN(Cc2ccc(Oc3ccccc3)cc2)C1', 'three');

###

experiment: yeast growth modulation, basal conditions, primary screen, YJM789 clinical isolate, OD600, 24 h (AID 1089);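 note: growth of clinical yeast isolate S. cerevisiae YJM 789 seeded 1000 cells per well; test concentration not given here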; conditions: S. cerevisiae YJM789 growth, higher = more signal, called active from +8 up or from −8 down
Assign a class from recorded z-score; defined classes: bottom end: < -0.4; midrange: ≥ -0.4 and < 0.6; top end: ≥ 0.6

INSERT INTO results (compound, group) VALUES
  ('CC(C)CNC(=O)[C@@H]1c2ccccc2C(=O)N(Cc2cc(F)cc(C(F)(F)F)c2)[C@H]1c1ccc(CO)cc1', 'midrange'),
  ('C=C(/C(=C/C[C@@H](OC(=O)c1ccncc1)c1ccccc1OCCO)c1cc(C(=O)OC)ccc1OC)C(C)C', 'midrange'),
  ('CC(C)C(CO)N1C(=O)[C@]2(C)C3C(=O)OCCC/C=C\[C@H]3OC23C=CCN(c2ccc(Cl)cc2)C(=O)[C@@H]13 (some centres undefined)', 'bottom end'),
  ('C[n+]1ccc(CCCO)cc1', 'top end'),
  ('O=C(O)[C@H](Cc1ccccc1)n1cc(-c2ccccn2)nn1', 'midrange'),
  ('COCCOC(=O)N1C(=O)[C@@]2(c3ccccc31)[C@H](c1ccc(OCCO)cc1)N1[C@H](c3ccccc3)[C@H](c3ccccc3)OC(=O)[C@H]1[C@@H]2C(=O)Nc1nc2ccccc2s1', 'midrange'),
  ('[N-]=[N+]=NCc1ccccc1C[C@@]1(C(N)=O)N=C(c2ccc(OCCCO)cc2)O[C@@H]1c1ccccc1CN=[N+]=[N-]', 'top end'),
  ('CCCCC(CC)C(O)C1C=CC2C(=O)N(c3ccccc3)C(=O)C2N1Nc1ccc([N+](=O)[O-])cc1 (centres undefined)', 'bottom end'),
  ('C=CCOC(=O)[C@H]1[C@@H]2C(=O)O[C@@H](c3ccccc3)[C@@H](c3ccccc3)N2[C@@H](c2ccc(OCCOC(=O)[C@H]3C[C@H]4C(=O)N[C@@H](CCCC[N+](C)(C)C)C(=O)N4[C@H]3c3cccc(OCCO)c3)cc2)[C@]12C(=O)Nc1ccc(I)cc12', 'top end'),
  ('C=CCN1C(=O)[C@@]2(O[C@@H](CCn3cc([C@H](O)c4ccccc4)nn3)[C@H]([Si](C)(C)c3ccc(OC)cc3)[C@H]2C)c2ccccc21', 'bottom end'),
  ('COc1ccc(C#Cc2ccc3c(c2)[C@]2(C(=O)N3)[C@H](C(=O)N3CCc4cc(OC)c(OC)cc4C3)[C@H]3C(=O)O[C@H](c4ccccc4)[C@H](c4ccccc4)N3[C@@H]2c2ccc(O)cc2)cc1', 'top end'),
  ('C=CCN1C(=O)[C@@]2(CCC(=O)OC(C)(C)C)N=C(c3ccc(OCCCO)cc3)O[C@H]2c2ccccc21', 'bottom end'),
  ('COc1cc(CO)cc(I)c1O[C@H]1C=C(C(=O)NCCO)C[C@@H](NCc2ccccc2F)[C@@H]1O', 'top end'),
  ('CN(C)CCCCNC(=O)[C@H]1C[C@H]2C(=O)N3CCC[C@H]3C(=O)N2[C@H]1c1ccc(O)cc1', 'bottom end'),
  ('COCCCNC(=O)[C@]1(CCC(=O)OC(C)(C)C)N=C(c2ccc(OCCCO)cc2)O[C@@H]1c1ccccc1', 'midrange'),
  ('COC(=O)C[C@H]1O[C@]2(C(=O)N(C)c3ccccc32)[C@@H](C)[C@@H]1[Si](C)(C)c1ccc(C)cc1', 'bottom end'),
  ('O=C1O[C@@H](c2ccccc2)[C@@H](c2ccccc2)N2[C@@H](c3ccccc3OCCO)[C@]3(C(=O)Nc4ccc(C#CC5=CCCCC5)cc43)[C@@H](C(=O)NC[C@H](O)c3ccccc3)[C@H]12', 'top end'),
  ('CC(C)CNC(=O)[C@@]1(c2ccc([N+](=O)[O-])cc2)CC(=O)N(C2CCCCC2)[C@@H]1c1ccc(CO)cc1I', 'bottom end'),
  ('CCOC(=O)[C@@H]1[C@@H]2C(=O)N(CC)C(=O)[C@@H]2C[C@@H]1Sc1ccccc1', 'bottom end'),
  ('C=CC[C@@]12N=C(c3ccc(OCCCO)cc3)O[C@@H]1c1ccccc1N(CCS(=O)(=O)c1ccccc1)C2=O', 'bottom end'),
  ('CC(=O)n1cc(C(O)C2C=CC3C(=O)N(c4ccccc4)C(=O)C3N2Nc2ccccc2)c2ccccc21 (centres undefined)', 'midrange'),
  ('Cc1ccc(S[C@]2(C(=O)NCC(C)C)CC(=O)N(Cc3ccccc3Cl)[C@@H]2c2ccc(CO)cc2I)cc1', 'bottom end'),
  ('CCOC(=O)C1=CC[C@@H](c2ccc([N+](=O)[O-])cc2)N(S(=O)(=O)c2ccc(C)cc2)[C@H]1c1ccccc1', 'top end'),
  ('CC(=O)n1cc(C(O)C2C=CC3C(=O)N(Cc4ccccc4)C(=O)C3N2n2cnnc2)c2ccccc21 (centres undefined)', 'bottom end'),
  ('COC(=O)[C@@]1(Cc2ccc(F)cc2)[C@H]2c3cc(C(=O)N4CCCC4)n(CCc4c[nH]c5ccc(OC)cc45)c3C[C@H]2CN1C(=O)c1ccccc1', 'midrange'),
  ('CCOC(=O)[C@H]1C/C=C/C[C@H](C(=O)OCC)C(=O)O[C@H]2[C@@H](OC)O[C@H](CO)[C@@H](OC(=O)CCc3ccccc3)[C@@H]2OC1=O', 'midrange'),
  ('O=C(O)[C@]1(Cc2ccccc2)N=C(c2ccc(OCCCO)cc2)O[C@@H]1c1ccccc1', 'top end'),
  ('C=C(C(=O)CC[C@H](OC(C)=O)c1cccc(OCCO)c1)C(C)C', 'midrange'),
  ('CN1C(=O)C2C=CC(C(O)C3CCCCC3)N(N3CCCCC3)C2C1=O (centres undefined)', 'top end');

The measurements presented in this section are drawn from PubChem BioAssay.
